Values from the supplement of paper PMC8728848

Molecular target: Neu5Ac(a2-3)Gal(b1-3)GlcNAc(b1-3)Gal(b1-4)GlcNAc
Test: glycan array binding signal (z-score within array); higher = stronger binding
Conditions: glycan notation: IUPAC condensed, linker removed
Only a selection was taken, and the strongest signals are over-represented in it overall.
PROPERTY NAME: glycan array binding signal (z-score)

[[record]]
binder = "Gal 9 (Homo sapiens), O00182 (protein) MAFSGSQAPYLSPAVPFSGTIQGGLQDGLQITVNGTVLSSSGTRFAVNFQTGFSGNDIAFHFNPRFEDGGYVVCNTRQNGSWGPEERKTHMPFQKGMPFDLCFLVQSSDFKVMVNGILFVQYFHRVPFHRVDTISVNGSVQLSYISFQNPRTVPVQPAFSTVPFSQPVCFPPRPRGRRQKPPGVWPANPAPITQTVIHTVQSAPGQMFSTPAIPPMMYPHPAYPMPFITTILGGLYPSKSILLSGTVLPSAQRFHINLCSGNHIAFHLNPRFDENAVVRNTQIDNSWGSEERSLPRKMPFVRGQSFSVWILCEAHCLKVAVDGQHLFEYYHRLRNLPTINRLEVGGDIQLTHVQT"
observed_value = 0.431

[[record]]
binder = "Lb MiSSP8 (Laccaria bicolor) (protein) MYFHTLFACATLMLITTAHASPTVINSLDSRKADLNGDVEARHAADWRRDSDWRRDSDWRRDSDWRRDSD"
observed_value = -0.868

[[record]]
binder = "Gal 4 (Mus musculus), P56470 (protein) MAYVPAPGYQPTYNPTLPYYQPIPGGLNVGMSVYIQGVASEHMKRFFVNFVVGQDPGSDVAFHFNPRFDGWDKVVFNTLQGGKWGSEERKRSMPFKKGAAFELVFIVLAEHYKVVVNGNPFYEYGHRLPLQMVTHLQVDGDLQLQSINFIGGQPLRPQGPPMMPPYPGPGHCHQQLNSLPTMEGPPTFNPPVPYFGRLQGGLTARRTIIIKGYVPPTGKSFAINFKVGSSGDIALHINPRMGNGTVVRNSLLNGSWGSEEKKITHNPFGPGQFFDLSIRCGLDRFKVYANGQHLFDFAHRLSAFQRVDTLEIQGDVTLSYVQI"
observed_value = -0.205

[[record]]
binder = "FBG5 (Homo sapiens), Q8NI29 (protein) MGASVSRGRAARVPAPEPEPEEALDLSQLPPELLLVVLSHVPPRTLLGRCRQVCRGWRALVDGQALWLLILARDHGATGRALLHLARSCQSPARNARPCPLGRFCARRPIGRNLIRNPCGQEGLRKWMVQHGGDGWVVEENRTTVPGAPSQTCFVTSFSWCCKKQVLDLEEEGLWPELLDSGRIEICVSDWWGARHDSGCMYRLLVQLLDANQTVLDKFSAVPDPIPQWNNNACLHVTHVFSNIKMGVRFVSFEHRGQDTQFWAGHYGARVTNSSVIVRVRLS"
observed_value = -0.162

